# experiment_notes: Cytotoxicity against human HK2 cells assessed as cell viability after 72 hrs by MTT assay
# Format: cell-based, HK-2
# reported_conditions: read-out: TC50
Recorded log10 of CC50 at 72 h by entry
# values: log10(CC50 at 72 h), units µM

compound | log10 of CC50 at 72 h
C=C(C(=O)NCCC)C(O)c1ccccc1Cl (configuration not stated) | 1.92

# query: log10 of CC50 at 72 h of entry C=C(C#N)C(O)c1ccccn1 (configuration not stated)
1.31

Quick check: log10 of CC50 at 72 h of C=C(C#N)C(O)c1ccccc1Cl (configuration not stated) ?
1.06

Entry CCOC(=O)/C(=C/I)C(O)c1ccccc1Cl (configuration not stated) has what log10 of CC50 at 72 h?
0.81

// lookup log10 of CC50 at 72 h for C/C=C(/C(=O)OCC)C(O)c1ccccc1Cl (configuration not stated)
1.87

---

# experimental_system: NACHT, LRR and PYD domains-containing protein 3 (Homo sapiens) (UniProt Q96P20)
# Sequence (Q96P20 whole entry, the tested form may be a part): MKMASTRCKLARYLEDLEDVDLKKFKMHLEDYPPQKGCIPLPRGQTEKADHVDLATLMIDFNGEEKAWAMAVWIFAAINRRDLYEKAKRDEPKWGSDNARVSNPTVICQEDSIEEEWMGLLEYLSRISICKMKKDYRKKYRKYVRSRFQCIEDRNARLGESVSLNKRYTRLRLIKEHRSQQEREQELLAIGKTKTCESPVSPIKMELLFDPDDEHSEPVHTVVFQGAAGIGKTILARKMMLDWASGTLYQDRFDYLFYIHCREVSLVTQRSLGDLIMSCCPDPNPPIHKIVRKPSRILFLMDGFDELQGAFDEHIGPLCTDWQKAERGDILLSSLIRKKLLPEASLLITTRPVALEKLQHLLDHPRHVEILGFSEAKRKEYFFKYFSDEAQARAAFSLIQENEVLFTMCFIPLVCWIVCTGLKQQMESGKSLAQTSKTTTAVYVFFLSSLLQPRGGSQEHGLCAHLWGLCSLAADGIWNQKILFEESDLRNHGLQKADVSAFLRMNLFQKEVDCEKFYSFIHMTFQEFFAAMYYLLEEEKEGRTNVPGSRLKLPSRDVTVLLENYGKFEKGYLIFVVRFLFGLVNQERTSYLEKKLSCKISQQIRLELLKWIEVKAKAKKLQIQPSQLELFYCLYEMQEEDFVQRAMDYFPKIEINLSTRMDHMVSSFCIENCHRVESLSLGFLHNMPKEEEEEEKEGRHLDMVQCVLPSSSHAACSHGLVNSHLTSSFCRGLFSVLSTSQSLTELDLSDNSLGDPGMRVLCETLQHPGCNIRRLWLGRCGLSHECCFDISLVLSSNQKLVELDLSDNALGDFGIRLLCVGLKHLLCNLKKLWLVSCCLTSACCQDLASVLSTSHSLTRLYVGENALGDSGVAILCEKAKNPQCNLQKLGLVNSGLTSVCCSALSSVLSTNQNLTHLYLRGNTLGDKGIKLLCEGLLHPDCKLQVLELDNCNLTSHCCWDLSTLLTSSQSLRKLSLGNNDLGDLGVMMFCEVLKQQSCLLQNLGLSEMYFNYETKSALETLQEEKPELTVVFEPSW
# experiment_notes: Inhibition of recombinant NLRP3-ATPase (unknown origin) assessed as hydrolysis of ATP at 10 uM
endpoint_label: inhibition (%)
# output: bare number, implied unit %

Consider the worked cases shown below.
molecule | inhibition [%]
C=C(C(=O)OCC)C(O)c1ccccc1Cl (stereo not given) | 51.8
C=C(C#N)C(O)c1ccccc1Cl (stereo not given) | 80.5
C=C(C(=O)O)C(O)c1ccccc1Cl (stereo not given) | 80.2
C=C1C(=O)O[C@@H]2C3O[C@]3(C)CC/C=C(\C)CC[C@@H]12 (stereo not given in full) | 25.9

Query molecule follows.
Item: C/C=C(\C(=O)OCC)C(O)c1ccccc1Cl (stereo not given) Test system: NACHT, LRR and PYD domains-containing protein 3 (Homo sapiens) (UniProt Q96P20) Read-out: inhibition Value: ?
23.3

---

Reported CC50 at 72 h values follow for various compounds
# experiment_notes: Cytotoxicity against human HK2 cells assessed as cell viability after 72 hrs by MTT assay
# Type: cell-based, HK-2
# reported_conditions: read-out: TC50
Dear colleague, please return just the value in µM, with no unit written.

Request the reported CC50 at 72 h associated with C=C(C(=O)OCC)C(O)c1ccccc1[N+](=O)[O-] (configuration not stated)
7.8

Quick check: CC50 at 72 h of C=C(C(=O)OCC)C(O)c1cccc(Cl)c1 (configuration not stated) ?
28.9

# query: CC50 at 72 h of entry C/C=C(\C(=O)OCC)C(O)c1ccccc1Cl (configuration not stated)
80.1

Find the recorded CC50 at 72 h belonging to C=C(C(=O)OCC)C(O)c1ccccc1OC (configuration not stated) and report it.
45.8

What does the record list as CC50 at 72 h for C=C(C#N)C(O)c1ccccc1F (configuration not stated) ?
12.9

GET /values?readout=CC50 at 72 h&item= C=C(C(=O)OCC)C(O)c1cc(Cl)cc(Cl)c1 (configuration not stated)
18.8

These measurements were taken from ChEMBL document CHEMBL3351787.
